Sourced from patent US12077503B2

Examples of molecules with documented pest or weed control at 125 g/ha follow.
- Tested on: ragweed (common ragweed, Ambrosia elatior)
- measurementNotes: Test A preemergence
- Type: in vivo
- measurementContext: Ambrosia artemisiifolia, pre-emergence, 240 h, 125 g ai/ha, preemergence; 0 to 100 scale where 0 is no effect and 100 is complete control; read-out: Ragweed plant response rating
// return the numeric value with its unit appended

Some molecules with known pest or weed control at 125 g/ha results, for comparison:
                                   molecule  observedresult
0  CN1C[C@H](c2cc(F)c(C(F)(F)F)c(F)c2)[C@@H](C(=O)Nc2cccc(F)c2F)C1=O             60%
1  CC(C)c1cccc([C@H]2CN(C)C(=O)[C@@H]2C(=O)Nc2ccc(F)cc2F)c1              0%
2  O=C1NC[C@H](c2ccc3c(c2)CCCO3)[C@H]1C(=O)Nc1ccccc1F              0%

Exam item: // returns reported pest or weed control at 125 g/ha for input O=C1NCC(c2cccc(I)c2)C1C(=O)Nc1ccccc1F (stereo not shown)
Marked response: 0%

* * *

Examples of compounds with documented Plant response rating, Crabgrass, Large follow.
- System: crabgrass, large (large crabgrass, Digitaria sanguinalis)
- measurementNotes: Test C preemergence
- Type: in vivo
- measurementContext: 62 g ai/ha, scale 0 to 100, 0 no effect, 100 complete control
Respond using a number only.

Some compounds with known Plant response rating, Crabgrass, Large results, for comparison:
>>> df
                                   compound                           systemundertest                                valuetype  observedresult
0  CN1CC(c2cccc(OC(F)(F)C(F)F)c2)C(C(=O)Nc2ccccc2C(F)(F)F)C1=O (stereo not shown) [Compound 431]  crabgrass, large (large crabgrass, Digitaria sanguinalis)  Plant response rating, Crabgrass, Large             100
1  O=C1NCC(c2cccc(OC(F)(F)C(F)F)c2)C1C(=O)Nc1cccc(F)c1F (racemic) [Compound 697]  crabgrass, large (large crabgrass, Digitaria sanguinalis)  Plant response rating, Crabgrass, Large              95
2  CN1C[C@H](c2ccc(F)c(F)c2)[C@@H](C(=O)Nc2ccccc2F)C1=O [Compound 596]  crabgrass, large (large crabgrass, Digitaria sanguinalis)  Plant response rating, Crabgrass, Large             100

--- query ---
Exam item: // returns reported Plant response rating, Crabgrass, Large for input O=C1NCC(c2cc(F)cc(C(F)(F)F)c2)C1C(=O)Nc1cccc(F)c1F (stereo not shown) [Compound 488]
Marked response: 95

* * *

- Test system: ivy-leaved morning glory (Ipomoea hederacea)
- measurementNotes: Test G Pre-Emergence Protocol
- Format: in vivo
- measurementContext: Ipomoea, pre-emergence, 312 h, 250 g ai/ha, evaluated after 13 days, read-out: Morningglory, Ivy-leaved damage rating (100=total damage to plant; 0=no damage to plant)
Examples of compounds with documented pest or weed control at 250 g/ha follow.
All answers are understood in %, so give the number only.

Some compounds with known pest or weed control at 250 g/ha results, for comparison:
In [3]: df
Out[3]:
                                   compound                           systemundertest  observedresult
0  COc1c(Cl)ccc([C@H]2CNC(=O)[C@@H]2C(=O)Nc2cccc(F)n2)c1F (racemic) [Compound 1478]  ivy-leaved morning glory (Ipomoea hederacea)               0
1  CN1C[C@H](c2ccc(C(F)(F)F)cc2)[C@@H](C(=O)Nc2ccccc2C(C)(C)C)C1=O (racemic) [Compound 1445]  ivy-leaved morning glory (Ipomoea hederacea)               0
2  CN1C[C@@H](c2ccc(C(F)(F)F)cc2)[C@H](C(=O)Nc2nnnn2C)C1=O (racemic) [Compound 1618]  ivy-leaved morning glory (Ipomoea hederacea)              20
3  CSc1nc(N)cc(NC(=O)[C@@H]2C(=O)N(C)C[C@H]2c2ccc(C(F)(F)F)cc2)n1 (racemic) [Compound 1644]  ivy-leaved morning glory (Ipomoea hederacea)               0
4  CN1C[C@@H](c2ccc(C(F)(F)F)cc2)[C@H](C(=O)Nc2ncc(Br)cn2)C1=O (racemic) [Compound 1514]  ivy-leaved morning glory (Ipomoea hederacea)               0

Exam item: Form: Entry = CN1C[C@H](c2cccc(C(F)F)c2)[C@@H](C(=O)Nc2ccccc2F)C1=O (racemic) [Compound 1464] | System = ivy-leaved morning glory (Ipomoea hederacea) | pest or weed control at 250 g/ha = ____
Marked response: 70

Exam item: And Cc1cc(C(F)(F)F)ccc1[C@@H]1CN(C)C(=O)[C@H]1C(=O)Nc1ccccc1F (racemic) [Compound 1415] ?
Marked response: 0
